Tested on: Vero
Assay Procedure: Inhibition of protein synthesis in African green monkey Vero cells at 25 uM relative to control
Type: functional
Test Settings: Chlorocebus sabaeus
Would you mind labelling by inhibition at 25 µM? At or over 30% is Condition met, under is Condition not met.

- Compound: "O=C(O)CNC(=O)C(CS)Cc1ccccc1 (stereo unspecified) [THIORPHAN]"
  Measured Target: "Vero"
  Class Assignment: "Condition met"
- Compound: "CC(C)C[C@@H](C(=O)N[C@H](C(=O)OC1CCCC1)c1ccccc1)[C@H](O)C(=O)NO [TOSEDOSTAT]"
  Measured Target: "Vero"
  Class Assignment: "Condition met"
- Compound: "CC(C)C[C@H](NC(=O)[C@@H](O)[C@H](N)Cc1ccccc1)C(=O)O [UBENIMEX]"
  Measured Target: "Vero"
  Class Assignment: "Condition not met"

Incoming: Given the entry `CN(C)c1ncnc2c1ncn2[C@@H]1O[C@H](CCl)[C@@H](NC(=O)[C@H](N)CSC(c2ccccc2)c2ccccc2)[C@H]1O` , answer whether its inhibition at 25 µM meets or surpasses 30%.
Outgoing: Condition not met

Incoming: API: above_or_equal(metric=inhibition at 25 µM, cutoff=30%) for item `CN(C)c1ncnc2c1ncn2[C@@H]1O[C@H](CCl)[C@@H](NC(=O)[C@H](CSC(c2ccccc2)c2ccccc2)NC(=O)OC(C)(C)C)[C@H]1O`
Outgoing: Condition not met

Incoming: State whether the measured inhibition at 25 µM reaches 30%, counting equality as reaching it, for `COc1ccc(C[C@H](N)C(=O)N[C@H]2[C@@H](O)[C@H](n3cnc4c(N(C)C)ncnc43)O[C@@H]2CCl)cc1`
Outgoing: Condition not met

Value source: ChEMBL document CHEMBL5579842
